From: ChEMBL document CHEMBL2057073

Molecular target: Beta-secretase 1 (Homo sapiens, UniProt P56817)
Sequence (P56817 whole entry): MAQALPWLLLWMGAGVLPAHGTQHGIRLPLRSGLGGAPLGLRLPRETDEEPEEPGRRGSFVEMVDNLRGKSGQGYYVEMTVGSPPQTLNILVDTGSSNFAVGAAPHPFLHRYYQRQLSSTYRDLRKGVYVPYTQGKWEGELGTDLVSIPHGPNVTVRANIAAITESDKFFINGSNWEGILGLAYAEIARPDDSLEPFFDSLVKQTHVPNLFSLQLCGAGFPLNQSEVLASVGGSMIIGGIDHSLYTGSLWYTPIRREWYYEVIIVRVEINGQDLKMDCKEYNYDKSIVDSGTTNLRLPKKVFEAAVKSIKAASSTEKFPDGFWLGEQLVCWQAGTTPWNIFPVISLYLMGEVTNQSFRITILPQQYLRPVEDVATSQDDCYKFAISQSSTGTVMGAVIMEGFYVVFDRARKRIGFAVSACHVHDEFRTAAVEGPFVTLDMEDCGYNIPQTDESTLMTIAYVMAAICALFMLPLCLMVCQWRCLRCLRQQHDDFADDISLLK
Test: Inhibition of BACE1 at 25 uM by FRET assay
attribute-measured: inhibition

These recorded examples may help you get a feel for the data.
molecule: CCc1ccccc1SCC(O)Cn1c(-c2ccccc2)cc2ccccc21 (stereo unspecified)
inhibition: 60%
//
molecule: CCc1cccc2ccn(CC(O)CSc3ccccc3Cl)c12 (stereo unspecified)
inhibition: 65%
//
molecule: CCc1ccc(SCC(O)Cn2c(-c3ccccc3)cc3ccccc32)cc1 (stereo unspecified)
inhibition: 42%
//
molecule: OC(COc1ccc(Cc2ccccc2)cc1)CSc1ccccc1Cl (stereo unspecified)
inhibition: 62%
//
molecule: OC(CSc1ccccc1F)Cn1c2ccccc2c2ccccc21 (stereo unspecified)
inhibition: 67%

// next item, inhibition requested
IN: State, for Beta-secretase 1 (Homo sapiens, UniProt P56817), measured inhibition of the molecule listed here: COc1ccc(SCC(O)Cn2c(C)c(C)c3ccccc32)c(OC)c1 (stereo unspecified)
OUT: 0%

----------
Molecular target: Beta-secretase 1 (Homo sapiens)
Assay: Inhibition of BACE1 at 100 uM by FRET assay
Consider the following compounds and their measured inhibition readings.
The reply should be a number in %, with the unit left off.

Worked set:
compound: COc1cc2c(cc1OC)C(c1ccccc1)N(CC(O)CSc1ccccc1F)CC2 (stereo unspecified)
value-reported: 23

compound: CCc1cccc2ccn(CC(O)CSc3ccc(OC)cc3)c12 (stereo unspecified)
value-reported: 83

compound: OC(CSc1ccccc1Cl)CN(Cc1ccccc1)Cc1ccccc1 (stereo unspecified)
value-reported: 45

compound: Cc1c(C)n(CC(O)CSc2ccc3ccccc3c2)c2ccccc12 (stereo unspecified)
value-reported: 87

compound: OC(CSc1ccc2ccccc2c1)Cn1c2c(c3ccccc31)CCC2 (stereo unspecified)
value-reported: 87

Next:
IN: Complete the entry with inhibition for COc1ccc(SCC(O)Cn2c3c(c4ccccc42)CCC3)cc1 (stereo unspecified)
OUT: 85

----------
Molecular target: UniProtKB P56817
Assay: Inhibition of BACE1 at 50 uM by FRET assay
attribute-measured: inhibition (%)
Express the result in % but write the number alone.

IN: # return recorded inhibition for entry OC(CSc1ccccc1Cl)Cn1c2c(c3ccccc31)CCCC2 (centres undefined)
OUT: 99

IN: For the compound OC(CSc1ccccc1F)Cn1c2ccccc2c2ccccc21 (centres undefined) , give its reported inhibition.
OUT: 84

IN: Let me know recorded inhibition for CCc1ccccc1SCC(O)Cn1c(-c2ccccc2)cc2ccccc21 (centres undefined) , thanks.
OUT: 72

IN: Please indicate inhibition recorded for Oc1ccc(SCC(O)Cn2c(-c3ccccc3)cc3ccccc32)cc1 (centres undefined)
OUT: 77

IN: Supply inhibition value. Item: OC(CSc1ccccc1)Cn1c2c(c3ccccc31)CCC2 (centres undefined)
OUT: 64

IN: Please report the measured inhibition for OC(CSc1ccc(F)cc1)Cn1c2c(c3ccccc31)CCCC2 (centres undefined)
OUT: 92

IN: Please give the documented inhibition of OC(CSc1ccccc1F)Cn1c2c(c3ccccc31)CCCC2 (centres undefined)
OUT: 86

IN: Query inhibition for OC(CSc1ccc(Cl)cc1)Cn1c(-c2ccccc2)cc2ccccc21 (centres undefined)
OUT: 69

IN: For the compound CCc1cccc2ccn(CC(O)CSc3ccccc3Cl)c12 (centres undefined) , give its measured inhibition value.
OUT: 87

IN: Give recorded inhibition. Cc1c(C)n(CC(O)CSc2nnnn2-c2ccccc2)c2ccccc12 (centres undefined)
OUT: 64

IN: Item CCc1cccc2ccn(CC(O)CSc3cc(C)cc(C)c3)c12 (centres undefined) : provide inhibition
OUT: 71

IN: Quote inhibition reported for OC(CSc1nnnn1-c1ccccc1)Cn1c2c(c3ccccc31)CCC2 (centres undefined) please.
OUT: 76

IN: Give the reported value of inhibition for this record: COc1ccc(SCC(O)Cn2c3ccccc3c3ccccc32)c(OC)c1 (centres undefined)
OUT: 69

IN: For the compound CCc1cccc2ccn(CC(O)CSc3nnnn3-c3ccccc3)c12 (centres undefined) , give its reported inhibition.
OUT: 46

----------
Recorded below: pIC50, system Beta-secretase 1 (Homo sapiens, UniProt P56817).
Conceptually, pIC50 converts a concentration in mol/L into minus its log10.

Use the examples below as a reference point.
compound: OC(CSc1ccccc1F)Cn1c2ccccc2c2ccccc21 (stereo unspecified)
system: Beta-secretase 1 (Homo sapiens, UniProt P56817)
pIC50: 5.27
//
compound: OC(CSc1ccc2ccccc2c1)Cn1ccc2ccccc21 (stereo unspecified)
system: Beta-secretase 1 (Homo sapiens, UniProt P56817)
pIC50: 4.98

IN: State its pIC50 for this compound: COc1ccc(SCC(O)Cn2c3c(c4ccccc42)CCCC3)cc1 (stereo unspecified)
OUT: 4.82

IN: Answer with the recorded pIC50 for the compound listed here: OC(COc1ccc(Cc2ccccc2)cc1)CSc1ccccc1Cl (stereo unspecified)
OUT: 5.02

IN: Indicate its recorded pIC50; the compound in question is NCCNC(CSc1ccc2ccccc2c1)Cn1c2ccccc2c2ccccc21 (racemic)
OUT: 5.13

IN: Look up and state reported pIC50 for Oc1ccc(SCC(O)COc2ccc(Cc3ccccc3)cc2)cc1 (stereo unspecified)
OUT: 4.97

----------
As shown below, each of these compounds has a reported inhibition value.
Biological target: Beta-secretase 1 (Homo sapiens, UniProt P56817)
Assay: Inhibition of BACE1 at 50 uM by FRET assay
Please give a number only; it is taken to be in %.

compound: CCc1cccc2ccn(CC(O)CSc3ccc(F)cc3)c12 (centres undefined)
inhibition (%): 41
--
compound: Cc1ccc(SCC(O)Cn2c3c(c4ccccc42)CCC3)cc1 (centres undefined)
inhibition (%): 81

IN: Given CCc1ccc(SCC(O)Cn2ccc3cccc(CC)c32)cc1 (centres undefined) , respond with its inhibition.
OUT: 61

IN: Tell us which inhibition value is on record for Oc1ccccc1SCC(O)COc1ccc(Cc2ccccc2)cc1 (centres undefined)
OUT: 101

----------
Catalogue of compounds with associated inhibition
Molecular target: Beta-secretase 1 (Homo sapiens)
Experiment: Inhibition of BACE1 at 25 uM by FRET assay
Your answer is read as %, so omit the unit and give the number.

IN: Specify measured inhibition for OC(CSc1ccccc1)Cn1c2c(c3ccccc31)CCC2 (stereo not drawn) .
OUT: 35

IN: Output measured inhibition for this item: COc1ccc(SCC(O)Cn2c3c(c4ccccc42)CCC3)cc1 (stereo not drawn)
OUT: 27

IN: Look up and report measured inhibition for this entry: COc1ccc(SCC(O)Cn2c3ccccc3c3ccccc32)c(OC)c1 (stereo not drawn)
OUT: 22

IN: Specify reported inhibition for the compound shown: Cc1ccc(SCC(O)Cn2c3c(c4ccccc42)CCC3)cc1 (stereo not drawn)
OUT: 55

IN: Return the recorded inhibition value; entry: Oc1ccccc1SCC(O)Cn1c(-c2ccccc2)cc2ccccc21 (stereo not drawn)
OUT: 87

IN: Give a short answer stating reported inhibition for COc1ccc(SCC(O)Cn2c3ccccc3c3ccccc32)cc1 (stereo not drawn) .
OUT: 37

IN: Answer with reported inhibition of OC(CSc1ccccc1F)Cn1c2c(c3ccccc31)CCCC2 (stereo not drawn)
OUT: 68

IN: Supply recorded inhibition for Cc1ccccc1SCC(O)Cn1c2c(c3ccccc31)CCC2 (stereo not drawn) here.
OUT: 73

----------
Let's go through some pIC50 measurements on Beta-secretase 1 (Homo sapiens, UniProt P56817) together.
The read-out pIC50 is expressed as -log10 of concentration in moles per litre.

Answered cases to consult:
compound: CCc1ccccc1SCC(O)Cn1c(-c2ccccc2)cc2ccccc21 (stereo not drawn)
pIC50: 4.99
//
compound: OC(CSc1ccccc1F)Cn1c2c(c3ccccc31)CCCC2 (stereo not drawn)
pIC50: 4.96
//
compound: OC(CSc1ccc2ccccc2c1)Cn1c2ccccc2c2ccccc21 (stereo not drawn)
pIC50: 5.31
//
compound: OC(CSc1ccc2ccccc2c1)C(O)Cn1c2ccccc2c2ccccc21 (stereo not drawn)
pIC50: 5.00
//
compound: Oc1ccc(SCC(O)Cn2c(-c3ccccc3)cc3ccccc32)cc1 (stereo not drawn)
pIC50: 4.87
//
compound: Cc1ccccc1SCC(O)Cn1c2c(c3ccccc31)CCC2 (stereo not drawn)
pIC50: 4.67

// next entry
IN: Return pIC50 for the following compound: OC(CCSc1ccc2ccccc2c1)Cn1c2ccccc2c2ccccc21 (stereo not drawn)
OUT: 5.17

----------
Molecular target: Beta-secretase 1 (Homo sapiens, UniProt P56817)
Experiment: Inhibition of BACE1 at 100 uM by FRET assay
Note to self: values exactly at 70% are 1 (yes). So inhibition at or above 70% is 1 (yes), below is 0 (no).

Previously resolved entries follow.
compound: COc1ccc(SCC(O)Cn2c3c(c4ccccc42)CCCC3)cc1 (stereo unspecified)
classification: 1 (yes)
--
compound: Cc1cc(C)cc(SCC(O)CN2CCC(C(O)(c3ccccc3)c3ccccc3)CC2)c1 (stereo unspecified)
classification: 0 (no)
--
compound: OC(CSc1ccccc1)Cn1c2ccccc2c2ccccc21 (stereo unspecified)
classification: 1 (yes)

IN: Given the entry Cc1ccc(SCC(O)COc2ccc(-c3ccccc3)cc2)cc1 (stereo unspecified) , answer whether its inhibition meets or surpasses 70%.
OUT: 0 (no)

IN: Kindly determine if inhibition recorded for Oc1ccccc1SCC(O)COc1ccc(Cc2ccccc2)cc1 (stereo unspecified) is above or exactly 70%.
OUT: 1 (yes)

IN: Quick check, inhibition >= 70%? Cc1ccccc1SCC(O)COc1ccc(-c2ccccc2)cc1 (stereo unspecified)
OUT: 1 (yes)

IN: Please tell me: is the compound Cc1c(C)n(CC(O)CSc2ccccc2F)c2ccccc12 (stereo unspecified) at or over 70% in terms of inhibition?
OUT: 0 (no)

IN: Quick check, inhibition >= 70%? COc1ccc(SCC(O)Cn2c3ccccc3c3ccccc32)c(OC)c1 (stereo unspecified)
OUT: 1 (yes)

IN: # bool: inhibition of CCc1ccccc1SCC(O)CN1CCc2cc(OC)c(OC)cc2C1c1ccccc1 (stereo unspecified) >= 70%
OUT: 0 (no)

IN: Is reported inhibition greater than or equal to 70% here: CCc1cccc2ccn(CC(O)CSCCCc3ccccc3)c12 (stereo unspecified)
OUT: 0 (no)
